# assayed target: hERG potassium channel (Homo sapiens, UniProt Q12809)
# Construct: host or cells: HEK-293
# Sequence (Q12809 whole entry): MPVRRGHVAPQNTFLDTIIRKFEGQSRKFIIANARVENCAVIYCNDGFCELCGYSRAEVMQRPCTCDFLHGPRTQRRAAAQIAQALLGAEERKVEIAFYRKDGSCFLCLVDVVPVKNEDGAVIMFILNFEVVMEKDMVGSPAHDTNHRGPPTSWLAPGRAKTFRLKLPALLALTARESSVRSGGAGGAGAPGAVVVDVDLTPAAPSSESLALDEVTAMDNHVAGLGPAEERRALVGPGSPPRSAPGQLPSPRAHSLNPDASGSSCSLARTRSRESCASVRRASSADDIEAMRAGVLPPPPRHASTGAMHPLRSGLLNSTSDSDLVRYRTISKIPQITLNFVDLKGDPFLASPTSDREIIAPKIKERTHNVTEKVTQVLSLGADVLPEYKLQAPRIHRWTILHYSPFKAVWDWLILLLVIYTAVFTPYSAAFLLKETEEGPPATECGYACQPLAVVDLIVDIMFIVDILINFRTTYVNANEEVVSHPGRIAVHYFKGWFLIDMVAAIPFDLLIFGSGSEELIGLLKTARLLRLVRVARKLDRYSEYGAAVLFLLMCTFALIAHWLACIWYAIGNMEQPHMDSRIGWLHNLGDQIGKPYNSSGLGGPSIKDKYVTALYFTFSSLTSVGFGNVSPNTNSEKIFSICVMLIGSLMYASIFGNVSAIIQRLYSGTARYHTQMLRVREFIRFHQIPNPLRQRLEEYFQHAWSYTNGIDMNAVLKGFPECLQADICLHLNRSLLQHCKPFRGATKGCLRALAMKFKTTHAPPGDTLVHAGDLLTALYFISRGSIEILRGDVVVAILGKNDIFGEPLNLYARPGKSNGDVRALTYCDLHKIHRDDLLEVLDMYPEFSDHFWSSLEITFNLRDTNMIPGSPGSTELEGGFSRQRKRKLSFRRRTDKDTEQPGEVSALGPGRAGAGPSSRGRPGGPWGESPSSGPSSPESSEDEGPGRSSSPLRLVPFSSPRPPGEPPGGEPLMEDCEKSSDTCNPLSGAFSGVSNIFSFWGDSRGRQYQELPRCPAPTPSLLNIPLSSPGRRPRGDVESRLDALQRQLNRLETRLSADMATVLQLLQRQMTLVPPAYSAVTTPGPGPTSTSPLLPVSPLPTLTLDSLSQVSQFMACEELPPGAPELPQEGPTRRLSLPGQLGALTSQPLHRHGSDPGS
# assay info: hERG whole-cell patch-clamp test in HEK-293 cells
# Assay type: cell-based
pIC50: −log10 of the molar value.
measure name: pIC50

Recorded result, CC(C)(C)CNC(=O)Cc1ccc(Nc2nc(N3CCC(c4ncc(Cl)cn4)CC3)nc3c2S(=O)(=O)CCC3)cc1F , pIC50: < 4.52

###

# assayed target: PDE4B2A (Homo sapiens)
# Construct: purchased BPS bioscience
# Sequence (Q07343 1-564 isoform Q07343-2): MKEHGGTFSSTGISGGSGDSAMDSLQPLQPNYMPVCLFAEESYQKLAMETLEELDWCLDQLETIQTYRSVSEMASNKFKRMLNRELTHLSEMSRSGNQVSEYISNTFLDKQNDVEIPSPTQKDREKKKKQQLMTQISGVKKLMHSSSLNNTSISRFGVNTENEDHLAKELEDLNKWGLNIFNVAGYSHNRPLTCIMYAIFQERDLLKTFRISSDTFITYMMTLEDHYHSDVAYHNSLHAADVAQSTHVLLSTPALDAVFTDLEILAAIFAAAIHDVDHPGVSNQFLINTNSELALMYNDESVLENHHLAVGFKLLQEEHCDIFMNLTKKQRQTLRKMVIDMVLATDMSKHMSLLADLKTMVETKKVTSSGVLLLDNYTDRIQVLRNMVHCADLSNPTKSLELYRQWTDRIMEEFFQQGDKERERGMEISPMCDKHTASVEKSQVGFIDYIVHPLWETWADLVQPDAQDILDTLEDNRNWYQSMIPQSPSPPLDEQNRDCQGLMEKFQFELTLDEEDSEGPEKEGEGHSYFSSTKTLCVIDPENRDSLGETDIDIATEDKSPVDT
# assay info: Selectivity for PDE4 enzyme isotypes, same detection method as PDE4B
# Format: biochemical
measure name: IC50 (nM)
Numeric answer only, unit nM assumed.

Form: item [O-][S+]1CCc2nc(N3CCC(c4ncc(Cl)cn4)CC3)nc(NC3(CO)CCC3)c21 (stereo not shown) ; test system PDE4B2A (Homo sapiens); IC50: 24.5

Measured values drawn from patent EP4803525A1 for this set.
